From: the EternaBench riboswitch data

- Tested on: MS2 coat protein
- protocol details: apparent Kd, MS2 coat protein; higher = weaker binding; RNA-MaP array; theophylline 2 mM where present
- details: designed as: OFF switch for theophylline; no ligand
property label: apparent Kd (nM)
Give the number; nM is assumed, so skip it.

>  <sequence string>
AGACAUGAGGAUCACCCAUGUAGUACGGAUACCAGAUCCAGAUGCGUCCCUUGGCAGCUGUAGUACAGCGUUACGUCGCUCAUAG

>  <measured target>
MS2 coat protein

>  <apparent Kd, nM>
25.2

$$$$
>  <sequence string>
GUUACAUGGCAAGCAUGUAUAUGGAUAGAUACCAGUUGAUAUUAAGACCCUUGGCAGCUGAGUACAUGAGGAUCACCCAUGUAAG

>  <measured target>
MS2 coat protein

>  <apparent Kd, nM>
42.5

$$$$
>  <sequence string>
AUUAAUUGUCGUGAUACCAGACUUACAUGAGGAUCACCCAUGUUACUUAAGAUUUUUGUUGUCCCUUGGCAGCACUUUUUAAUUA

>  <measured target>
MS2 coat protein

>  <apparent Kd, nM>
24.1

$$$$

What apparent Kd value was documented for this sequence, `AAACAUUGCUGCGAUACCAGACAUGAGGAUCACCCAUGUACCAAGAAAACGUACAUAAAUGUCCCUUGGCAGCGCAGCAAUGAAA` ?
498

* * *

The sequences listed here are annotated with their apparent Kd.
- Tested on: MS2 coat protein
- protocol details: apparent Kd, MS2 coat protein; higher = weaker binding; RNA-MaP array; FMN 200 µM where present
- details: ligand present: flavin mononucleotide; designed as: OFF switch for flavin mononucleotide

# annotated cases, reported apparent Kd shown
>  <sequence string>
CCAAACGGAGGAUAUACAAAUUAAGGAAAAAAACGCGAAAAACAUGAGGAUCACCCAUGUAGAAGGCCGAAAAA

>  <val>
0.0179 µM

$$$$
>  <sequence string>
UAAGAGCGAGGAUAUACGUCGCUGGUCCGGAUGGACGCAUGACAUGAGGAUCACCCAUGUAGAAGGCGCAAAAC

>  <val>
0.0733 µM

$$$$
>  <sequence string>
GUAGUGUAUGUAGGAUAUGUGAAGGAAACAUUUACAGAAGGACAUGAGGAUCACCCAUGUAUUACAGUCAGCAAUCUGACUGUU

>  <val>
0.0412 µM

$$$$

Would you kindly look at the next entry?
What apparent Kd value was documented for this sequence, `UUGAUAAGGAGAGGAUAUGGACAUGAGGAUCACCCAUGUACAUGGGAAUAUUUACUGAAUUCUUACUAGAAGGCUUACAUAUUU` ?
0.0133 µM

* * *

- Test system: MS2 coat protein
- protocol details: apparent Kd, MS2 coat protein; higher = weaker binding; RNA-MaP array; theophylline 2 mM where present
- details: ligand present: theophylline; designed as: ON switch for theophylline
Everything with apparent Kd lower than 20 nM is criterion not met; everything else, including exactly 20 nM, is criterion met.

Below are worked cases with known answers.
>  <sequence string>
GGCCGGUGCGCUUUGAAGCGACGGCGUGAUACCAGAUGUAAGAGCGUCCCUUGGCAGCACGUUUACAUGAGGAUCACCCAUGUCU

>  <label value>
criterion met

$$$$
>  <sequence string>
AAUAACAUGAGGAUCACCCAUGUAAAAGAUACCAGAUGCAUGAUGAUCCCUUGGCAGCUUAACGCUGAUUGAUUACAAUCAGCGA

>  <label value>
criterion met

$$$$
>  <sequence string>
GAACAUGAGGAUCACCCAUGUUAAACAGAUACCAGUGAUAUAAUACACCCUUGGCAGCUGAAGCUGAAUAAUAAUUCCCUCAAGC

>  <label value>
criterion not met

$$$$
>  <sequence string>
AUCGCACCUGGUGAUACCAGCGUUUGCUCGCGACAUGAGGAUCACCCAUGUGGCCAGUGAUGCCCUUGGCAGCAUGGGCGGUGCA

>  <label value>
criterion met

$$$$
>  <sequence string>
GGGCCCGGGCGCGAGCCCGGGCCCAUUGAUACCAGUGAAUGUGUACGCCCUUGGCAGCGAAUCCUAACAUGAGGAUCACCCAUGU

>  <label value>
criterion met

$$$$
>  <sequence string>
UACAUGAGGAUCACCCAUGUAAGGUGAGAUACCAGUGAUAUGCUACACCCUUGGCAGCUCACGGCUGACUAUCAGCACACAUGUA

>  <label value>
criterion not met

$$$$

Tell me whether apparent Kd is at least 20 nM here: `GUCAGUUCUCAUGAUACCAGACCUGCCUCGGACAUGAGGAUCACCCAUGUACCCAAGCGAGUCCCUUGGCAGCAUGUGGCUUAAA`
criterion not met

Tell me whether apparent Kd is at least 20 nM here: `AUUAAUAGUUGUGAUACCAGACUUACAUGAGGAUCACCCAUGUUACUUAAGUGUUUUGAUGUCCCUUGGCAGCACUGUUUAGUUA`
criterion not met

Tell me whether apparent Kd is at least 20 nM here: `UGUAACAUGAGGAUCACCCAUGUGAGUGAUACCAGACUAGUGUUGGUCCCUUGGCAGCACGCUGGGCGAGUGUGUAGUCUAUGCG`
criterion met

Tell me whether apparent Kd is at least 20 nM here: `AAUAUAAAAUAAAGAAAAUUUAUAUCUGAUACCAGACUCUCAUGGGUCCCUUGGCAGCAGUAACAUGAGGAUCACCCAUGUAUUA`
criterion not met

Tell me whether apparent Kd is at least 20 nM here: `GCUGUAAGUGCAGAUACCAGCAGGUGAUAUUUCUAAUGACAUGAGGAUCACCCAUGUAACUGCCCUUGGCAGCUGCACUUACAGC`
criterion not met

Tell me whether apparent Kd is at least 20 nM here: `GGUGGGACUUGUGAUACCAGCCUAAUUCUAAACGAAUUGCACAUGAGGAUCACCCAUGUCGGCCCUUGGCAGCAUGAGUAUUUAU`
criterion met

Tell me whether apparent Kd is at least 20 nM here: `GCACGACAUGAGGAUCACCCAUGUGCAGAUACCAGUAAUGUAUGUUACCCUUGGCAGCUGAGUAGGUCUGGAGGGCUAUAGGUAA`
criterion not met

* * *

- Tested on: MS2 coat protein
- protocol details: apparent Kd, MS2 coat protein; higher = weaker binding; RNA-MaP array
- details: designed as: OFF switch for theophylline; no ligand
The sequences listed here are annotated with their apparent Kd.

# annotated cases, reported apparent Kd shown
>  <sequence string>
UUUAGUAUCUUAGAUACCAGUUUUGGGUGCUGAACGUCUCACAUGAGGAUCACCCAUGUAAACCCUUGGCAGCUACAUACGUAAA

>  <measured target>
MS2 coat protein

>  <apparent Kd>
45.5 nM

$$$$
>  <sequence string>
AUGUAGCCGUCGACUGUACCUUAUGCCGAUACCAGCUACCCGUGAAGCCCUUGGCAGCGGGAAACAUGAGGAUCACCCAUGUCAG

>  <measured target>
MS2 coat protein

>  <apparent Kd>
23.9 nM

$$$$
>  <sequence string>
UGUCGCAGGUUAGAUACCAGCGAGGCGCGGGUAAAUGUUCACAUGAGGAUCACCCAUGUUCGCCCUUGGCAGCUAGUAGGCAUAA

>  <measured target>
MS2 coat protein

>  <apparent Kd>
24.2 nM

$$$$

What apparent Kd value was documented for this sequence, `CCUGGAUCAGAUCUUAAAGGCGGUUCUGAUACCAGUCUUUUCCGAGACCCUUGGCAGCAGAACACAUGAGGAUCACCCAUGUAAA` ?
52.4 nM

* * *

- System: MS2 coat protein
- protocol details: apparent Kd, MS2 coat protein; higher = weaker binding; RNA-MaP array; FMN 200 µM where present
- details: designed as: OFF switch for flavin mononucleotide; no ligand
Everything with apparent Kd lower than 30 nM is Criterion not met; everything else, including exactly 30 nM, is Criterion met.

Tell me whether apparent Kd is at least 30 nM here: `CGGCACCAAGGAUAUACAUGAGGAUCACCCAUGUUUUUUGGGCCCUUAAAAUCUACGUGUAGAAGGUGGGUCGA`
Criterion met

Tell me whether apparent Kd is at least 30 nM here: `UUACACUUGAGGGUCUCCCUUGACAUGAGGAUCACCCAUGUGCAGGAUAUACGUGUGAUGGUAUAGUAGAAGGGCACUCUAUGU`
Criterion not met

* * *

- Test system: MS2 coat protein
- protocol details: apparent Kd, MS2 coat protein; higher = weaker binding; RNA-MaP array; FMN 200 µM where present
- details: ligand present: flavin mononucleotide; designed as: OFF switch for flavin mononucleotide
The sequences listed here are annotated with their apparent Kd.
Give the number; nM is assumed, so skip it.

# annotated cases, reported apparent Kd shown
>  <sequence string>
UGUCUAUAUGAAGGAUAUCUAAGCAUAAACCGUAGAGAAGGUCAAUAGUACAUGAGGAUCACCCAUGUUGGGAUUGAUGGGUUU

>  <property label>
apparent Kd

>  <val>
38.6

$$$$
>  <sequence string>
UAUCCGCUAGGAUAUACUAUAUUGUCCUCGUGAGUGAUGCUACAUGAGGAUCACCCAUGUAGAAGGAGCGCGUG

>  <property label>
apparent Kd

>  <val>
30.6

$$$$
>  <sequence string>
GUGCGGUAGGAGAAGGACGGAGGCUUCUUUUCAUACAUGAGGAUCACCCAUGUAGGAUAUCCUACCUCACGCGGCCUACUACAG

>  <property label>
apparent Kd

>  <val>
7.7

$$$$

Would you kindly look at the next entry?
Hello, I am looking for reported apparent Kd with MS2 coat protein for `GCACGGCAUGUAGGAUAUGCAUAGCAUUGCUAUGCAGAAGGACAUGAGGAUCACCCAUGUAUGUAUUCCAUACAAUUCCCGUGC` . Could you help?
12
